B1: Lysozyme C, P61626 (parent)
chain: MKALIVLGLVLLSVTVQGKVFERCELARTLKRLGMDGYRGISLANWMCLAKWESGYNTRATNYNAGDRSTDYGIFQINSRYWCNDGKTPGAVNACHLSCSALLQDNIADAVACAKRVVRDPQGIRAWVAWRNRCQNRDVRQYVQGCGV

Variants of: B1
Settings: Homo sapiens; pH 3; Thermal; DSC; glycine 0.05 M; reversible: yes; structure 1LZ1; whole UniProt chain shown
So I've got a bunch of variants here, and I need their unfolding enthalpy (van 't Hoff) values.
Express your answer in kcal/mol, writing the number without its unit.

Challenge: In one line, give reported unfolding enthalpy (van 't Hoff) of the entry MKALIVLGLVLLSVTVQGKVFERCELARTLKRLGMDGYRGISLANWMCLAKWESGYNTRATNYNAGDRSTDYGIFQINSRYWCNDGKTPGAVNACHLSCSALLQDNIADAVACAKRVVRDPQGIRAWVAWRNRCQNRDARQYVQGCGV [V139A] .
Response given: 67.5

Challenge: State its unfolding enthalpy (van 't Hoff): MKALIVLGLVLLSVTVQGKVFERCELARTLKRLGMDGYRGISLANWMCLAKWESGYNTRATNYNAGDRSTDYGIFQINSRYWCNDGKTPGAVNACHLSCSALLQDNIADAVACAKRVVRDPQGIRAWAAWRNRCQNRDVRQYVQGCGV [V128A]
Response given: 93.1

Challenge: Retrieve unfolding enthalpy (van 't Hoff) measured for MKALIVLGLVLLSVTVQGKVFERCELARTLKRLGMDGYRGISLANWMCLAKWESGYNTRATNYNAGDRSTDYGVFQINSRYWCNDGKTPGAVNACHLSCSALLQDNIADAVACAKRVVRDPQGIRAWVAWRNRCQNRDVRQYVQGCGV [I74V] and print it.
Response given: 73

Challenge: Please look at this variant and report its unfolding enthalpy (van 't Hoff): MKALIVLGLVLLSVTVQGKVFERCELARTLKRLGMDGYRGISLANWMCLAKWESGYNTRATNYNAGDRSTDYGIFQINSRYWCNDGKTPGAVNACHLSCSALLQDNIADAVACAKRVVRDPQGVRAWVAWRNRCQNRDVRQYVQGCGV [I124V]
Response given: 75.6

Challenge: Please look at this variant and report its unfolding enthalpy (van 't Hoff): MKALIVLGLVLLSVTVQGKVFERCELARTLKRLGMDGYRGISLANWMCLAKWESGYNTRATNYNAGDRSTDYGIFQVNSRYWCNDGKTPGAVNACHLSCSALLQDNIADAVACAKRVVRDPQGIRAWVAWRNRCQNRDVRQYVQGCGV [I77V]
Response given: 76.1
